molecular target: Histamine H2 receptor (Homo sapiens); assay: Antagonist activity at human histamine H2 receptor expressed in HEK293 cells preincubated for 5 mins followed by forskolin-stimulation and measured after 5 hrs by CRE-driven luciferase reporter gene assay
Sequence (P25021 whole entry): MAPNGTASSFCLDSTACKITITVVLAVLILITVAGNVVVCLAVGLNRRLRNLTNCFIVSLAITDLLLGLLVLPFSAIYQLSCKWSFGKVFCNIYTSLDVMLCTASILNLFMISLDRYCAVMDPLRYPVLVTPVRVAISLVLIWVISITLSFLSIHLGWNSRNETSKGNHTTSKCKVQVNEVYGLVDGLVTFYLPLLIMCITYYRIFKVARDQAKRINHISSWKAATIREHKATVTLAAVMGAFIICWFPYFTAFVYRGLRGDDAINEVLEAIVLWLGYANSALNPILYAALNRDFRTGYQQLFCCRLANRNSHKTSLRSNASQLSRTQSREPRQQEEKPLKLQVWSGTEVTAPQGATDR
Attribute Measured: IC50

Incoming: Identify measured IC50 corresponding to COc1cn(-c2ccc(OCCCN3CCCC3)cc2)ccc1=O
Outgoing: > 10 µM

---

biological target: hERG (KCNH2) (Homo sapiens); assay: Inhibition of human ERG at 3 uM by patch clamp method relative to control
Sequence (Q12809 whole entry): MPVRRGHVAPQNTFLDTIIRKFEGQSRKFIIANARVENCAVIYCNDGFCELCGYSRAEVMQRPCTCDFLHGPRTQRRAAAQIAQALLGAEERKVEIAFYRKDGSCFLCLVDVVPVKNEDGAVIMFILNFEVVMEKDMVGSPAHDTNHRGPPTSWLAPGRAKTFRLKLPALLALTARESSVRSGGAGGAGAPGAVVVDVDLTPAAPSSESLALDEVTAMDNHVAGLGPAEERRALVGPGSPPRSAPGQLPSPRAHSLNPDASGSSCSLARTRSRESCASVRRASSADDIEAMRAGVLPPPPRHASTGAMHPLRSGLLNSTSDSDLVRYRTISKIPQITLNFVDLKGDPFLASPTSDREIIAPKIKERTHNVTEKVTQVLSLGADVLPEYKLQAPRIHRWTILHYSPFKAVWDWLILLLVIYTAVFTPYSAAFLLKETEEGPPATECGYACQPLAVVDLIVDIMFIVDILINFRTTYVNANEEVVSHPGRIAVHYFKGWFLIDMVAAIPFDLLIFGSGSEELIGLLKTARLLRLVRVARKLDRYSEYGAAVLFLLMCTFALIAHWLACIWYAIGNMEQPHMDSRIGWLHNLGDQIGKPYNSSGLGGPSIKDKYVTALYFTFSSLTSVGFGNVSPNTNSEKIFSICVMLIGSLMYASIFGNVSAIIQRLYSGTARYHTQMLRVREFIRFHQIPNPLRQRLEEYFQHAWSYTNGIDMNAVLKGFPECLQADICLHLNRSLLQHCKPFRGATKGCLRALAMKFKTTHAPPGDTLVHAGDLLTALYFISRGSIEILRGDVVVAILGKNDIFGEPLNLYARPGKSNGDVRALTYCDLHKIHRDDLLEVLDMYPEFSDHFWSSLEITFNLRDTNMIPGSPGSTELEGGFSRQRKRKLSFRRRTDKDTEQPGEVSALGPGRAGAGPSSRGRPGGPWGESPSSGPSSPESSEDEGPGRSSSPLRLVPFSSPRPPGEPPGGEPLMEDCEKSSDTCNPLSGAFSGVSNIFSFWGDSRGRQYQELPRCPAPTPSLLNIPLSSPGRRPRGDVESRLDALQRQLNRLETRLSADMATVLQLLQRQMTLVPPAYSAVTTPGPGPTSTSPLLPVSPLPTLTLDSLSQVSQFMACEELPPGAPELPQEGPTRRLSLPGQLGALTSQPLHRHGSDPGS
Attribute Measured: inhibition at 3 µM (%)
Output spec: scalar in %, unitless text.

Incoming: Determine its reported inhibition at 3 µM: COc1cn(-c2ccc(OCCCN3CCCC3)cc2)ccc1=O
Outgoing: 6.3

---

target: Histamine H1 receptor (Homo sapiens, UniProt P35367); test: Antagonist activity at human histamine H1 receptor expressed in HEK293 cells preincubated for 5 mins followed by forskolin-stimulation and measured after 5 hrs by CRE-driven luciferase reporter gene assay
Sequence (P35367 whole entry): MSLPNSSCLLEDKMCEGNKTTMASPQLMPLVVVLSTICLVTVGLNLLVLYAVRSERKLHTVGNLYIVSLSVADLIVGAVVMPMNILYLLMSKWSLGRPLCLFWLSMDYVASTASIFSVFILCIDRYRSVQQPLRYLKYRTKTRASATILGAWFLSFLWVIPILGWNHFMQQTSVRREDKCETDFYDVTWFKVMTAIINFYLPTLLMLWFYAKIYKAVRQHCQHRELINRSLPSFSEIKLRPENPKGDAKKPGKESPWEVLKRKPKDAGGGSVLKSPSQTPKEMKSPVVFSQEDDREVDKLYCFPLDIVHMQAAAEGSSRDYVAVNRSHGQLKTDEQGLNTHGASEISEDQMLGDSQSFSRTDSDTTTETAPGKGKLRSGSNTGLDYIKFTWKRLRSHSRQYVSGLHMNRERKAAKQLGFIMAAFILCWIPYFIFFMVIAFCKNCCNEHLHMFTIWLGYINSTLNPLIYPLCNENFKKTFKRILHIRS
Attribute Measured: IC50

Incoming: Determine its reported IC50: COc1cn(-c2ccc(OCCCN3CCCC3)cc2)ccc1=O
Outgoing: > 10 µM

// data source = ChEMBL document CHEMBL4732134
